# assayTarget: human muscarinic M3 receptor (Homo sapiens, UniProt P20309)
# Construct: expressed in transfected cells
# Sequence (P20309 whole entry): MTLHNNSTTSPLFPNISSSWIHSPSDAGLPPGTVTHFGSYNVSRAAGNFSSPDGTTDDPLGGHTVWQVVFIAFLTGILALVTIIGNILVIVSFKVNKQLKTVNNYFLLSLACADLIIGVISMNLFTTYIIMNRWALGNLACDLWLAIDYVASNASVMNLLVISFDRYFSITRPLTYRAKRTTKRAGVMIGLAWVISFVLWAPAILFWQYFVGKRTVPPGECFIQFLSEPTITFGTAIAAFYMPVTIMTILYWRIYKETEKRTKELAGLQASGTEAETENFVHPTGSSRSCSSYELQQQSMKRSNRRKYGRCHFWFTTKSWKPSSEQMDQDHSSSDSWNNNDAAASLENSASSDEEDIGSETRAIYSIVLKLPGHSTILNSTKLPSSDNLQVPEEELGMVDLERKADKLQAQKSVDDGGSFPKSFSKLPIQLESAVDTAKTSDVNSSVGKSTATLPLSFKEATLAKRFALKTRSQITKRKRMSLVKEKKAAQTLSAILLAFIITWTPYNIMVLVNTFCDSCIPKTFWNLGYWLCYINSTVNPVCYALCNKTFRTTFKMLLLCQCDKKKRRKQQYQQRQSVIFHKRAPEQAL
# testProtocol: Alphascreen Surefire phospho-ERK1/2 functional assay, M3
# Format: cell-based
# setupConditions: CHO, read-out: % Emax cf. ACh, M3, CHO cells stably expressing human M3; Emax relative to ACh
Reported Emax values for a set of compounds
property: Emax (%)

[
  {
    "compound": "CCOC(=O)N1C2COCC1CC(N1CCC(c3ccc[nH]c3=O)CC1)C2 (single isomer, unassigned) [Example 2-3 Isomer 1]",
    "unitOfMeasurement": "%",
    "dataValue": 9
  },
  {
    "compound": "CCOC(=O)N1C2COCC1CC(N1CCC3(CC1)CNC(=O)C3)C2 (single isomer, unassigned) [Example 5-2 Isomer 2]",
    "unitOfMeasurement": "%",
    "dataValue": 5
  },
  {
    "compound": "CCOC(=O)N1C2COCC1CC(N1CCC3(CC1)CNC(=O)O3)C2 (single isomer, unassigned) [Example 5-3 Isomer 2]",
    "unitOfMeasurement": "%",
    "dataValue": 5
  },
  {
    "compound": "CCOC(=O)N1C2COCC1CC(N1CCC(n3cccn3)CC1)C2 (single isomer, unassigned) [Example 1-1 Isomer 1]",
    "unitOfMeasurement": "%",
    "dataValue": 13
  },
  {
    "compound": "CCOC(=O)N1C2COCC1CC(N1CCC(C(=O)NCC3CCC3)CC1)C2 (single isomer, unassigned) [Example 7-3 Isomer 1]",
    "unitOfMeasurement": "%",
    "dataValue": 57
  },
  {
    "compound": "CCOC(=O)N1C2COCC1CC(N1CCC(N(CC3(C)CCC3)C(C)=O)CC1)C2 (single isomer, unassigned) [Example 6-4 Isomer 2]",
    "unitOfMeasurement": "%",
    "dataValue": 19
  },
  {
    "compound": "CCOC(=O)N1C2COCC1CC(N1CCC3(CC1)C(=O)Nc1ccccc13)C2 (single isomer, unassigned) [Example 5-5 Isomer 1]",
    "unitOfMeasurement": "%",
    "dataValue": 4
  },
  {
    "compound": "CCOC(=O)N1C2COCC1CC(N1CCC3(CC1)OC(=O)NC3CC)C2 (single isomer, unassigned) [Example 5-4 Isomer 1a]",
    "unitOfMeasurement": "%",
    "dataValue": 2
  },
  {
    "compound": "CCOC(=O)N1C2COCC1CC(N1CCC(n3cc(Cl)cn3)CC1)C2 (single isomer, unassigned) [Example 1-2 Isomer 2]",
    "unitOfMeasurement": "%",
    "dataValue": 2
  },
  {
    "compound": "CCOC(=O)N1C2COCC1CC(N1CCC(c3cccnc3OC)CC1)C2 (single isomer, unassigned) [Example 2-2 Isomer 1]",
    "unitOfMeasurement": "%",
    "dataValue": 4
  }
]

Value source: patent US10787447B2
